Target: VEGFR-2 (Homo sapiens, UniProt P35968)
Sequence (P35968 20-1356): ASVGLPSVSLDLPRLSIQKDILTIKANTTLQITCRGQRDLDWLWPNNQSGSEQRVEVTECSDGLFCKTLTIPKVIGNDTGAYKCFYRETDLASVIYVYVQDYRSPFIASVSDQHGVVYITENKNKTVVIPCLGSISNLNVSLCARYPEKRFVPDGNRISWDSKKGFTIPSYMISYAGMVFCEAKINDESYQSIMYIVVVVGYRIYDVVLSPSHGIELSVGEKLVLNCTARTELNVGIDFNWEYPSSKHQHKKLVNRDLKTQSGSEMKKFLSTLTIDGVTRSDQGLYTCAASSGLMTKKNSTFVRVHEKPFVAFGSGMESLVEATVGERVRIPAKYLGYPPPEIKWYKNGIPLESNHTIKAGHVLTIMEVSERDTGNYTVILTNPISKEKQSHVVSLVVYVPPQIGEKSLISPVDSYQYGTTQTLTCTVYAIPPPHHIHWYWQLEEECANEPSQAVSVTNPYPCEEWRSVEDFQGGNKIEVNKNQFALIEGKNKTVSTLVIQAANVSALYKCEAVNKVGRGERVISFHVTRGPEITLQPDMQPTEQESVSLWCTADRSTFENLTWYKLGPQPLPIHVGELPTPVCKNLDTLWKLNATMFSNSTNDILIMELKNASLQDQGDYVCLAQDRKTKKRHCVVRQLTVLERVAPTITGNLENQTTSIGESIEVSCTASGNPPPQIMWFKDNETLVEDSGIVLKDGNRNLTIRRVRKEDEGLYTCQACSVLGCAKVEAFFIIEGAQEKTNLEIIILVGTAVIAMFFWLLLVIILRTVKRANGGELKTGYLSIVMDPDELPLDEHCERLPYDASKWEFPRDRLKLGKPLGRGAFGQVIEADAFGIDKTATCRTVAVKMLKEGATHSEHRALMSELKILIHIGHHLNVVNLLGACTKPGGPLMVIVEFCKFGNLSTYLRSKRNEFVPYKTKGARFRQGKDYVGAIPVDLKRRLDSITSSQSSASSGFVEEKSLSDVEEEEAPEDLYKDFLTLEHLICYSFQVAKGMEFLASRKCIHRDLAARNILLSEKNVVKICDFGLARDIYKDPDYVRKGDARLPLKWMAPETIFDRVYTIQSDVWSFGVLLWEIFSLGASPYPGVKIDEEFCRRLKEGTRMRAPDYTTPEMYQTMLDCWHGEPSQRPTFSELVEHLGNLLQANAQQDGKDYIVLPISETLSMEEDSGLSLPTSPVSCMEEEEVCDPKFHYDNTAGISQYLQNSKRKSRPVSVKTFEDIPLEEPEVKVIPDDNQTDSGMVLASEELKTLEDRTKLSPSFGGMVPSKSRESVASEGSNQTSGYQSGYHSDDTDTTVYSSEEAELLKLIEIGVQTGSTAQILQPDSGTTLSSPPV
measurement label: pIC50
Bear in mind: pIC50 is minus log10 of a mol/L concentration; give just that figure.

-- ask Record CC(=O)c1nn(-c2ccccc2Cl)/c(=N/N=C(\C)c2ccc(NC(=O)c3cccnc3)cc2)s1 : what is its pIC50 with VEGFR-2 (Homo sapiens, UniProt P35968)?
-- reply 7.02

* * *

Test: Safety assay on normal cells, MTT assay
Assay type: cell-based
Details: human, WI-38 cells (normal lung fibroblast cell line)
measurement label: IC50 at 24 h (µM)
Numbers only here, please. The scale is µM.

# compound, number
rows = [
    ("CC(=O)c1nn(-c2ccccc2Cl)/c(=N/N=C(\\C)c2ccc(NC(=O)c3cccnc3)cc2)s1 [Compound 7a]", 73.6),
]

Okay, next one:
-- ask // query IC50 at 24 h value for entry CNC(=O)c1cc(Oc2ccc(NC(=O)Nc3ccc(Cl)c(C(F)(F)F)c3)cc2)ccn1 [Sorafenib]
-- reply 10.6

* * *

Listing: IC50 at 24 h of selected compounds
Assay: Safety assay on normal cells, MTT assay
Type: cell-based
Details: human, WISH cells (normal amnion cell line)
Numbers only here, please. The scale is µM.

-- ask // query IC50 at 24 h value for entry CNC(=O)c1cc(Oc2ccc(NC(=O)Nc3ccc(Cl)c(C(F)(F)F)c3)cc2)ccn1
-- reply 13.4

-- ask // query IC50 at 24 h value for entry CC(=O)c1nn(-c2ccccc2Cl)/c(=N/N=C(\C)c2ccc(NC(=O)c3cccnc3)cc2)s1
-- reply 57.7
